# Tested on: Plasmodium berghei
# test.method.notes: Screen against P. berghei liver stage (PbLuc), transformed with Luciferase, at 10uM
# Assay type: functional, HepG2
# study.conditions: tested at 10 uM
Screen size: about 69,000 compounds; about 8,600 (12%) showed an effect of 50% or more. The sample as a whole holds a higher share of strong results than the screen did.
Below is a list of entries, each paired with its recorded INHIBITION value.
The answer is to be given in %; state only the numeric part.

Worked examples follow.
- compound: "CC(=O)N1CCCC(c2nc(N(C)C)ncc2-c2cccc(F)c2)C1 (configuration not stated)"
  INHIBITION [%]: 74.9
- compound: "CN(C)c1nccc(C2CCCN(C(=O)CO)C2)n1 (configuration not stated)"
  INHIBITION [%]: 23.2
- compound: "CCC(=O)N1CCCC(c2nc(N(C)C)ncc2-c2ccc(F)cc2)C1 (configuration not stated)"
  INHIBITION [%]: 73.1
- compound: "CN(Cc1nc2ccccc2s1)C1CCCN(c2cccnn2)C1 (configuration not stated)"
  INHIBITION [%]: 24.7
- compound: "Cc1c[nH]c(C2CCCN(Cc3cccc(C(=O)O)c3)C2)n1 (configuration not stated)"
  INHIBITION [%]: 6.26
- compound: "c1ncc2c(n1)CN(Cc1nc(-c3ccsc3)no1)CC2"
  INHIBITION [%]: -16
- compound: "CN(CCC#N)C(=O)CN1CCCC1c1ccsc1 (configuration not stated)"
  INHIBITION [%]: 10.5
- compound: "CC(=O)N1CCCC1c1nc(N(C)C)ncc1-c1ccccc1 (configuration not stated)"
  INHIBITION [%]: 1.62
- compound: "CCOC(=O)C1CCN(C(=O)CN2CCCC2c2cc(C)no2)CC1 (configuration not stated)"
  INHIBITION [%]: -15.1
- compound: "CC(C)n1cnc2ccc(NC(=O)CCCn3cccn3)cc2c1=O"
  INHIBITION [%]: -5.38

Kindly note the recorded INHIBITION for COC(=O)N1CCc2ccccc2C1C(=O)NCc1nc(C)no1 (configuration not stated) , which is 43.4

Kindly note the recorded INHIBITION for CCC(=O)N1CCCC1c1nc(N(C)C)ncc1-c1ccc(Cl)cc1 (configuration not stated) , which is 50.8

---

# Tested on: Plasmodium berghei
# test.method.notes: Screen against P. berghei liver stage (PbLuc), transformed with Luciferase, at 10uM
# Format: functional, HepG2
# study.conditions: tested at 10 uM
About 8,600 (12%) of roughly 69,000 compounds showed an effect of 50% or more. The sample holds strong results, similar compounds and a random draw of the others, so the mix is not that of the screen.
assay.readout: INHIBITION (%)
The answer is to be given in %; state only the numeric part.

- compound: "CCc1nnsc1C(=O)N1CCN(CC(O)CC)CC1 (stereo unspecified)"
  assay.readout: "INHIBITION"
  display.unit: "%"
  number: 17.8
- compound: "CCc1nnc(CN(CC)C(=O)C2CC(=O)N(CC)C2)o1 (stereo unspecified)"
  assay.readout: "INHIBITION"
  display.unit: "%"
  number: 39.1
- compound: "Cc1nc(CN(C)C2CCCN(c3cccnn3)C2)nc2ccccc12 (stereo unspecified)"
  assay.readout: "INHIBITION"
  display.unit: "%"
  number: 47
- compound: "Cc1nnc(C2Cc3ccccc3CN2Cc2nc(C(C)C)no2)o1 (stereo unspecified)"
  assay.readout: "INHIBITION"
  display.unit: "%"
  number: -10.1
- compound: "CCN(CC)C(=O)CS(=O)(=O)c1cc(OC)c(OC)cc1C"
  assay.readout: "INHIBITION"
  display.unit: "%"
  number: -48.3
- compound: "O=C(c1cccnc1)N1C[C@H]2CC[C@@H](C1)N(Cc1cccc(Cl)c1F)C2"
  assay.readout: "INHIBITION"
  display.unit: "%"
  number: -48.4
- compound: "CNc1ccnc(N(C)Cc2cc(-c3cccs3)n[nH]2)n1"
  assay.readout: "INHIBITION"
  display.unit: "%"
  number: 88.4
- compound: "CCc1c(C)n(CC(C)=O)c2nc3ccccc3n2c1=O"
  assay.readout: "INHIBITION"
  display.unit: "%"
  number: 4.66

Kindly note the recorded INHIBITION for NS(=O)(=O)Cc1cccc(C(=O)N2CCCC(n3cccn3)C2)c1 (stereo unspecified) , which is 14.815

Kindly note the recorded INHIBITION for `CN(C)c1nccc(NCc2cc(-c3cccs3)n[nH]2)n1` , which is 18.9

Kindly note the recorded INHIBITION for Cc1ccc(CC(=O)N2CCCC2Cn2nc(C)cc2C)cn1 (stereo unspecified) , which is 33.7

---

# System: Plasmodium berghei
# test.method.notes: Screen against P. berghei liver stage (PbLuc), transformed with Luciferase, at 10uM
# Assay type: functional, HepG2
# study.conditions: tested at 10 uM
In all, about 69,000 compounds went through this assay and about 8,600 (12%) showed an effect of 50% or more. The full list was thinned out, with strong results kept by preference.
assay.readout: INHIBITION (%)
The answer is to be given in %; state only the numeric part.

Worked examples follow.
- compound: "O=C(N[C@@H]1CN(Cc2ccc(F)cc2)C[C@H]1O)c1cscn1"
  INHIBITION / %: 10
- compound: "CCN(C(=O)c1nc2c(s1)CCCN2S(C)(=O)=O)C(C)C"
  INHIBITION / %: 4.68

Kindly note the recorded INHIBITION for `O=C(c1sccc1Cl)N1CCC(Cn2cc(CO)nn2)CC1` , which is 10.7

Kindly note the recorded INHIBITION for `O=C(Cc1ccsc1)N1CCC(Cn2cc(CCO)nn2)CC1` , which is 57.1

Kindly note the recorded INHIBITION for NCc1cn(CC2CCCN(C(=O)CC3=CCCCC3)C2)nn1 (stereo unspecified) , which is 58.5

Kindly note the recorded INHIBITION for `O=C(CC1=CCCCC1)N1CCC(Cn2cc(CCO)nn2)CC1` , which is 58.5

---

Below is a list of entries, each paired with its recorded INHIBITION value.
# System: Plasmodium berghei
# test.method.notes: Screen against P. berghei liver stage (PbLuc), transformed with Luciferase, at 10uM
# Assay type: functional, HepG2
# study.conditions: tested at 10 uM
The campaign covered roughly 69,000 compounds. About 8,600 (12%) showed an effect of 50% or more. The sample holds strong results, similar compounds and a random draw of the others, so the mix is not that of the screen.
The answer is to be given in %; state only the numeric part.

Worked examples follow.
- molecule: "CCC1(CC)CC(=O)N(CC(O)c2ccc(Cl)cc2)C1=O (centres undefined)"
  assay.readout: "INHIBITION"
  number: 7.3
- molecule: "CC(C)n1ccnc1Cn1ccc2ncccc2c1=O"
  assay.readout: "INHIBITION"
  number: -9.91
- molecule: "CC(=O)c1cccc(NC(=O)COc2c(C)n(C)ccc2=O)c1"
  assay.readout: "INHIBITION"
  number: -19

Switching to the query record.
Kindly note the recorded INHIBITION for Cn1ncc2c(=O)[nH]c(CN3CCCC3c3cccc(F)c3)nc21 (centres undefined) , which is -29.9

---

# Test system: Plasmodium berghei
# test.method.notes: Screen against P. berghei liver stage (PbLuc), transformed with Luciferase, at 10uM
# Assay type: functional, HepG2
# study.conditions: tested at 10 uM
About 8,600 (12%) of roughly 69,000 compounds showed an effect of 50% or more. The sample holds strong results, similar compounds and a random draw of the others, so the mix is not that of the screen.
INHIBITION strictly less than 50% = MET. Otherwise NOT MET.

-- ask Lab note: INHIBITION threshold 50%. Does this molecule come in strictly under it? COC(=O)C(CO)NC(=O)c1cn(Cc2ccccc2F)nn1 (stereo not given)
-- reply MET

-- ask Lab note: INHIBITION threshold 50%. Does this molecule come in strictly under it? `CN1CCN(c2ccc(NCc3ccc(OC(F)(F)F)cc3)cn2)CC1`
-- reply NOT MET

-- ask Lab note: INHIBITION threshold 50%. Does this molecule come in strictly under it? `Cc1nnc(NCCC(=O)N(C)Cc2ccccc2)c(C#N)c1C`
-- reply MET

-- ask Lab note: INHIBITION threshold 50%. Does this molecule come in strictly under it? `CN(Cc1ccccc1F)Cc1cc2c(cc1Br)OCCO2`
-- reply NOT MET

-- ask Lab note: INHIBITION threshold 50%. Does this molecule come in strictly under it? Cc1ccc(Nc2nccc(C3CCN(C(=O)CO)C3)n2)nc1 (stereo not given)
-- reply MET

-- ask Lab note: INHIBITION threshold 50%. Does this molecule come in strictly under it? CC(Cn1cncn1)NC(=O)c1cn(Cc2ccccc2F)nn1 (stereo not given)
-- reply NOT MET

All figures here come from ChEMBL document CHEMBL4513216.
